Some compounds, each annotated with its measured hERG current change (%, negative = inhibition) at 10uM.
# system-tested: human ether-à-go-go-related gene (hERG) potassium channel (human);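 note: peak tail current of the secondary pulse compared with the same well before compound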
# Sequence (Q12809 whole entry, looked up): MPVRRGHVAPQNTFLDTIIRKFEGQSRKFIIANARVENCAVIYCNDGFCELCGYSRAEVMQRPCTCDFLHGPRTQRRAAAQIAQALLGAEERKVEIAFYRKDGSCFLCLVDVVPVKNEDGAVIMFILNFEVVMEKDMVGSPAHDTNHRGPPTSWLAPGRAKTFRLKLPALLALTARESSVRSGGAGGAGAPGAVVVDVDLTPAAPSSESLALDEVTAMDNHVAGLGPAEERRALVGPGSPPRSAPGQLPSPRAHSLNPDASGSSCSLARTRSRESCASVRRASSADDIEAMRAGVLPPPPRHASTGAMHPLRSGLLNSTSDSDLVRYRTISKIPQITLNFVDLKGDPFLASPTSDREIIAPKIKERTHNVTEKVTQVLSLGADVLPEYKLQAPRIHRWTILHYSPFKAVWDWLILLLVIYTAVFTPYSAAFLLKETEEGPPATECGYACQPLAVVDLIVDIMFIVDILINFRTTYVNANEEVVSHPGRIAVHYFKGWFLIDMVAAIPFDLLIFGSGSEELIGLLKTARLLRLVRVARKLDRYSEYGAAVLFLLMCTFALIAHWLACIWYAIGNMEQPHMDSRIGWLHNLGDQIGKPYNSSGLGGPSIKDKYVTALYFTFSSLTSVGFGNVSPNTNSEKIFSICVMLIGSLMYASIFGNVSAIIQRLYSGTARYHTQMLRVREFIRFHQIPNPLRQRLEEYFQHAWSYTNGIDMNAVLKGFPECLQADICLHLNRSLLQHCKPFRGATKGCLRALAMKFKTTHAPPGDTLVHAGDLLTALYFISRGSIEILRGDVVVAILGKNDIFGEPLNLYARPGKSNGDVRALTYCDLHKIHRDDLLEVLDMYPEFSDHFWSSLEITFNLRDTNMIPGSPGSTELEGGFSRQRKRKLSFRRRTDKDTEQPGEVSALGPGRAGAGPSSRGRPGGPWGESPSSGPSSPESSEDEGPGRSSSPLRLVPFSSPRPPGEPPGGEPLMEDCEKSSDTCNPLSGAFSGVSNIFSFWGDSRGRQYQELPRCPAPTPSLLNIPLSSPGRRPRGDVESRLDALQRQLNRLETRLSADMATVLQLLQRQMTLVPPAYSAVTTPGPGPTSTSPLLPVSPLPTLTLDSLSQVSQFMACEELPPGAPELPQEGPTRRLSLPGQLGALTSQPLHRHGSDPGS
# test-name: primary screen, population patch clamp on CHO cells stably expressing hERG; higher = less effect of the substance
The campaign covered roughly 310,000 compounds. About 14,000 (4.5%) showed an effect of 50% or more. The effect is printed as a negative number. This is one part of a sample in which strong results are shown more often than they occur.
attribute-measured: hERG current change (%, negative = inhibition) at 10uM (%)

compound | system-tested | experimental-value
CCOC(=O)C1CCN(c2c(N3CCN(Cc4ccccc4)CC3)c(=O)c2=O)CC1 | human ether-à-go-go-related gene (hERG) potassium channel (human) | -73.4
N#CCCN(Cc1ccccc1)S(=O)(=O)c1cccs1 | human ether-à-go-go-related gene (hERG) potassium channel (human) | -16.5
O=C(N/C(=C\c1ccco1)C(=O)N1CCC(O)CC1)c1ccccc1 | human ether-à-go-go-related gene (hERG) potassium channel (human) | 27.7
CCn1c(Cc2ccccc2)nnc1SCC(=O)Nc1ccc(S(N)(=O)=O)cc1 | human ether-à-go-go-related gene (hERG) potassium channel (human) | 2.13
NC(=O)C1CCN(C(=O)/C(=C/c2ccco2)NC(=O)c2ccccc2)CC1 | human ether-à-go-go-related gene (hERG) potassium channel (human) | 11.2
O=C(Nc1ccccc1C(=O)NCCCN1CCOCC1)c1ccc(Cl)cc1 | human ether-à-go-go-related gene (hERG) potassium channel (human) | -15.5
COc1ccc(CN2CCC(C)CC2)cc1OCc1ccccc1 | human ether-à-go-go-related gene (hERG) potassium channel (human) | -49.6
Cc1ccc(OCCNC(=O)c2ccccc2O)cc1 | human ether-à-go-go-related gene (hERG) potassium channel (human) | 8.04
CCN1CCN(C(=O)/C(=C/c2ccco2)NC(=O)c2ccccc2)CC1 | human ether-à-go-go-related gene (hERG) potassium channel (human) | -70.4
COc1ccc(-c2cn[nH]c2-c2ccc(OCC(=O)NN)cc2O)cc1OC | human ether-à-go-go-related gene (hERG) potassium channel (human) | 18.3
COc1cc(CN2CCCCC2)ccc1OCc1ccccc1.O=C(O)C(=O)O | human ether-à-go-go-related gene (hERG) potassium channel (human) | -35.1
O=C(CCc1nnc(C2CCCCC2)o1)N1CCN(Cc2ccccc2)CC1 | human ether-à-go-go-related gene (hERG) potassium channel (human) | 5.53
CN1CCN(C(=O)/C(=C/c2ccco2)NC(=O)c2ccccc2)CC1 | human ether-à-go-go-related gene (hERG) potassium channel (human) | -67.6
CCOC(=O)C1CCN(c2c(NCCCN3CCN(Cc4ccccc4)CC3)c(=O)c2=O)CC1 | human ether-à-go-go-related gene (hERG) potassium channel (human) | 3.6
CCOC(=O)C1CCN(Cc2ccc(-c3ccccc3)cc2)CC1 | human ether-à-go-go-related gene (hERG) potassium channel (human) | -28.8
CC(O)CNC(=O)C1CCN(Cc2ccc(OCc3ccccc3)cc2)CC1.O=C(O)C(=O)O (centres unmarked) | human ether-à-go-go-related gene (hERG) potassium channel (human) | -33.2
COc1ccccc1NC(=O)CCS(=O)(=O)c1ccccc1 | human ether-à-go-go-related gene (hERG) potassium channel (human) | 12.7
O=C(C1CCN(Cc2ccc(OCc3ccccc3)cc2)CC1)N1CCCC1 | human ether-à-go-go-related gene (hERG) potassium channel (human) | -47.1
COc1cc(CN2CCC(C)CC2)ccc1OCc1ccccc1.O=C(O)C(=O)O | human ether-à-go-go-related gene (hERG) potassium channel (human) | -52.9
CC(C)CNC(=O)C1CCN(Cc2ccc(OCc3ccccc3)cc2)CC1.O=C(O)C(=O)O | human ether-à-go-go-related gene (hERG) potassium channel (human) | -77.1
